Just for reference, PubChem BioAssay is where these values come from.

Biological target: Calcium-dependent protein kinase 1 (Plasmodium falciparum (isolate 3D7)) (UniProt P62344)
Sequence (P62344 whole entry, looked up): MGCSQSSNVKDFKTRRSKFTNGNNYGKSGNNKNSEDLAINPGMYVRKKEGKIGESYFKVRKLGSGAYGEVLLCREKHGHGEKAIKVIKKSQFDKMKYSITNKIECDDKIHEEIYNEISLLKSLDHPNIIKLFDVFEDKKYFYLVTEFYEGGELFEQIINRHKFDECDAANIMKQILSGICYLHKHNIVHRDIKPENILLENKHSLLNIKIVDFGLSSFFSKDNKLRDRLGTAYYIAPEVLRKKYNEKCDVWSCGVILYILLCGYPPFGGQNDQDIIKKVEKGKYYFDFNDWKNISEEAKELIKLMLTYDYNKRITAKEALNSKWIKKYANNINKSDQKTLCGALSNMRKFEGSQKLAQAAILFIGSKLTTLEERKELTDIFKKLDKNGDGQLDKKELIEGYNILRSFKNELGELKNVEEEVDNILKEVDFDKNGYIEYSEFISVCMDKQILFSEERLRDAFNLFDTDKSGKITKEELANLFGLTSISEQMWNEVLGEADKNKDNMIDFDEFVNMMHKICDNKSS
Assay: PfCDPK1 kinase inhibitors, biochemical, TCAMS library (AID 1159585);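 note: inhibitors leave more ATP so luminescence rises with inhibition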
Conditions: recombinant PfCDPK1, Kinase-Glo ATP depletion luminescence
Results with a measured potency or affinity are listed apart. The source made the active and inactive calls. No cut-off is given here; in the data, nearly all actives have IC50 up to about 0.98 µM.
MEASURED_QUANTITY: outcome

Example results:
- SMILES_ENTRY: "CCN(CC)CCOc1cc2c(cc1Br)-c1cc(Br)c(OCCN(CC)CC)cc1C2=NO"
  outcome: "inactive"
- SMILES_ENTRY: "COc1nc(Nc2cccc(C)c2)nc(OC)n1"
  outcome: "inactive"
- SMILES_ENTRY: "Cc1c(S(=O)(=O)Nc2ccc3ccn(CCN(C)C)c3c2)sc2ccc(Cl)cc12"
  outcome: "inactive"
- SMILES_ENTRY: "CCCCCCN1CCN(Cc2cccc(NC(=O)c3cc4ccccc4s3)c2)CC1"
  outcome: "inactive"

So, CC(C)(C)c1cc([N+](=O)[O-])cc(C(=O)Nc2ccccc2C(F)(F)F)c1O ? Its outcome was inactive
